Provide the reported yeast fitness of each item.
B1: tRNA (parent)
chain: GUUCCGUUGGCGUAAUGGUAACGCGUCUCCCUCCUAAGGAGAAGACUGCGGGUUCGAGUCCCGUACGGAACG

- Variants of: B1
- experimental.protocol: yeast fitness relative to wild type (ratio to wild type); higher = fitter; tRNA-Arg(CCU), competitive growth, 37 C, YPD
Fewer inactive variants are shown than the library holds.
Give your answer as a number; write no unit.

Form: variant = G48A G51A A69U ; yeast fitness = 0.755

Form: variant = C33U C62G ; yeast fitness = 0.632

Form: variant = U3A G10C A36U A40C C60G ; yeast fitness = 0.569

Form: variant = C5G U13A A65G ; yeast fitness = 0.603

Form: variant = G6A A20G C49A ; yeast fitness = 0.616

Form: variant = C24U A45C G58C ; yeast fitness = 0.554

Form: variant = U13C C31A C55A ; yeast fitness = 0.565

Form: variant = A14U A40C C62A C66U ; yeast fitness = 0.603

Form: variant = G6A C29G ; yeast fitness = 0.634

Form: variant = C29U G38C A43U C55U ; yeast fitness = 0.516

Form: variant = U2C U16G ; yeast fitness = 0.96

Form: variant = C30A U47C G58A A69U ; yeast fitness = 0.563

Form: variant = C4U G48C A70U ; yeast fitness = 0.542

Form: variant = U16C A43C A45U C49G ; yeast fitness = 0.722

Form: variant = C4G U8C C22G A42C C49U A57C ; yeast fitness = 0.676

Form: variant = G41A A43G C60U A70C ; yeast fitness = 0.542

Form: variant = G12A U35C C66U ; yeast fitness = 0.614

Form: variant = C4U A37U C66A ; yeast fitness = 0.542

Form: variant = C5G A65G A69U ; yeast fitness = 0.71

Form: variant = C29U G44C A57U ; yeast fitness = 0.635

Form: variant = C27G G38C ; yeast fitness = 0.5

Form: variant = G10C C22U C61U ; yeast fitness = 0.518

Form: variant = C27U A37G G41A G50C ; yeast fitness = 0.649

Form: variant = C31G G44C ; yeast fitness = 0.931

Form: variant = C5G A21G U32C A65U G68A ; yeast fitness = 0.507

Form: variant = U8C A21G A70G ; yeast fitness = 0.747

Form: variant = C24A U28C ; yeast fitness = 0.568

Form: variant = C49G G50C A65U ; yeast fitness = 0.544

Form: variant = C5G A20G A40G G44A C46G ; yeast fitness = 0.517

Form: variant = A37U A65G ; yeast fitness = 0.651

Form: variant = U47G A57U C60A ; yeast fitness = 0.555

Form: variant = A14C C27A C31A ; yeast fitness = 0.588

Form: variant = U7A G51A G52A ; yeast fitness = 0.536

Form: variant = U3C C24G C49U C55G G58A ; yeast fitness = 0.576

Form: variant = A20G G51C ; yeast fitness = 0.581

Form: variant = A57U A70C ; yeast fitness = 0.7

Form: variant = A40C A42U C49G ; yeast fitness = 0.624

Form: variant = C22A G63A ; yeast fitness = 0.983

Form: variant = U32C G44C ; yeast fitness = 0.842

Form: variant = G6C U13C C46A ; yeast fitness = 0.627

Form: variant = C24U A37U A43U ; yeast fitness = 0.646

Form: variant = C5G G12C C24A C33G C49G A65G ; yeast fitness = 0.573

These measurements were taken from the RNAGym collection of RNA variant scans (doi:10.1126/science.aae0568).
